EXPERIMENTAL SYSTEM: PfProRS (Plasmodium falciparum, UniProt Q8I5R7)
Construct: B2, AA7–746 (minus 6 amino acids, or 99% of the ORF); made in house; host or cells: E. coli BL21(DE3)R3 Rosetta Oxford
Sequence (Q8I5R7 7-746): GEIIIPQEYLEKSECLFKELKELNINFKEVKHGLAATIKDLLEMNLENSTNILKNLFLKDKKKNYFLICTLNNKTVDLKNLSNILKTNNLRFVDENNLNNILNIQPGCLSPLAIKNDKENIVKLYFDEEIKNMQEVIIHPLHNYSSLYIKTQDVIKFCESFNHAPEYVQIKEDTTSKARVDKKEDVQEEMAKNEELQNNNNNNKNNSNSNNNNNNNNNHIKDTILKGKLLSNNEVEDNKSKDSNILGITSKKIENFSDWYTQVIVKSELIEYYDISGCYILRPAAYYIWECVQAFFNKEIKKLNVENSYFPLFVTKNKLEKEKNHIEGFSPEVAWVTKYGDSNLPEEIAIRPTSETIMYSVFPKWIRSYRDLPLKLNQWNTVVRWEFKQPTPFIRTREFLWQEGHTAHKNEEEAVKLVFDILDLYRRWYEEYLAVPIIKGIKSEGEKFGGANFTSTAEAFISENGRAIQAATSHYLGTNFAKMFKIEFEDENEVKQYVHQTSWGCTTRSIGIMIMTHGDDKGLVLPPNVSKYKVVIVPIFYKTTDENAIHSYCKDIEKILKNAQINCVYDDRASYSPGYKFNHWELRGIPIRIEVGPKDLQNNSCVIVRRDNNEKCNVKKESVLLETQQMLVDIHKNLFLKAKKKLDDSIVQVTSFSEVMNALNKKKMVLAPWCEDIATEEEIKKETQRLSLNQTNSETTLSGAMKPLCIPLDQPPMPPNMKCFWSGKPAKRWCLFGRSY
EXPERIMENT: luciferase ATP depletion assay, HTS format
Type: biochemical
TEST CONTEXT: PfProRS IC50, 75 nM ProRS, 60 μM proline, 6 μM ATP, 400 μg/mL yeast tRNA, 2 h 37 °C
MEASURED PROPERTY: pIC50
Numbers only, as −log10 of the molar value.

MOLECULE: COc1ccc(Cl)cc1C(=O)NCCc1ccc(S(=O)(=O)NC(=O)NC2CCCCC2)cc1 [glyburide]
pIC50: 4.47

Proceed to the following item.
Fill in: PfProRS (Plasmodium falciparum, UniProt Q8I5R7) pIC50 for O=C(CC1NCCCC1O)Cn1cnc2cc(Br)c(Cl)cc2c1=O (centres unmarked) = 6.55

---

Hi there, I'd appreciate the recorded EC50 for every entry that follows.
System: Plasmodium falciparum strain 3D7
EXPERIMENT: Plasmodium falciparum growth inhibition, SYBR green fluorescence
Format: cell-based
TEST CONTEXT: 3D7, growth inhibition, read-out: Pf (3D7) EC50
Numbers only, in µM.

COMPOUND: Cn1nc(CCO)c(-c2ccc(F)cc2)c1NC(=O)Nc1ccc(F)cc1 [Compound 19]
EXPERIMENTAL SYSTEM: Plasmodium falciparum strain 3D7
EC50 [µM]: 20
--
COMPOUND: Cn1nc(CC#N)c(-c2ccc(F)cc2)c1NC(=O)Nc1ccc(F)cc1 [Compound 23]
EXPERIMENTAL SYSTEM: Plasmodium falciparum strain 3D7
EC50 [µM]: 4
--
COMPOUND: Cn1nc(C(F)(F)F)c(-c2cccc(C(F)(F)F)c2)c1NC(=O)Nc1ccc(F)cc1 [Compound 17]
EXPERIMENTAL SYSTEM: Plasmodium falciparum strain 3D7
EC50 [µM]: 0.9
--
COMPOUND: Cn1nc(C(F)(F)F)c(Br)c1NC(=O)Nc1ccc(F)cc1 [Compound 11]
EXPERIMENTAL SYSTEM: Plasmodium falciparum strain 3D7
EC50 [µM]: 16
--
COMPOUND: Cn1nc(CCC#N)c(-c2ccc(F)cc2)c1NC(=O)Nc1ccc(F)cc1 [Compound 24]
EXPERIMENTAL SYSTEM: Plasmodium falciparum strain 3D7
EC50 [µM]: 6

Kindly give each listed record's EC50.
1. Cn1nc(C(F)(F)F)c(-c2ccc(F)cc2)c1N [Compound 2]
2. Cn1nc(C(F)(F)F)c(-c2cccc(CNS(C)(=O)=O)c2)c1NC(=O)Nc1ccc(F)cc1 [Compound 16]

Result ::
1. 5
2. 10

---

Hi there, I'd appreciate the recorded IC50 for every entry that follows.
EXPERIMENTAL SYSTEM: HsProRS (Homo sapiens, UniProt P07814)
Construct: made in house
Sequence (P07814 1007-1512 limits assumed): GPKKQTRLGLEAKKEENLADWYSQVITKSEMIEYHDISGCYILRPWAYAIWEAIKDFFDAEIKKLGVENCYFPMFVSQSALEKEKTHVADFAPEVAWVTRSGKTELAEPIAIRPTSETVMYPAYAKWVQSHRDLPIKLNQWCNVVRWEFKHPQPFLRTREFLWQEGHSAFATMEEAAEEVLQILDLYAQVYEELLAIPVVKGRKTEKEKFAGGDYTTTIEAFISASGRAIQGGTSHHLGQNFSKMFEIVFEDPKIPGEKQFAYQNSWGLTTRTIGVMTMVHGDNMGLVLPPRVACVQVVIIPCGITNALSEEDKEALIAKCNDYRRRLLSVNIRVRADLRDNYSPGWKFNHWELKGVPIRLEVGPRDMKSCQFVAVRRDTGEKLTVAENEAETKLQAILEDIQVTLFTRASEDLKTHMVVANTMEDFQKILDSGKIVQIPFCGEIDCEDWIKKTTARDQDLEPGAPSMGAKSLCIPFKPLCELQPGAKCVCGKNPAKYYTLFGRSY
EXPERIMENT: luciferase ATP depletion assay, counter-screen
Format: biochemical

COMPOUND: Cn1nc(C(F)(F)F)c(-c2ccc(F)cc2)c1NC(=O)Nc1ccc(F)cc1
IC50: > 700 µM

Proceed to the following item.
Given item COc1ccc(Cl)cc1C(=O)NCCc1ccc(S(=O)(=O)NC(=O)NC2CCCCC2)cc1 [glyburide] , the value recorded as its IC50 is > 700 µM

---

Hi there, I'd appreciate the recorded pIC50 for every entry that follows.
EXPERIMENTAL SYSTEM: PfProRS (Plasmodium falciparum)
Construct: B2, AA7–746 (minus 6 amino acids, or 99% of the ORF); made in house; host or cells: E. coli BL21(DE3)R3 Rosetta Oxford
EXPERIMENT: biochemical
Type: biochemical
TEST CONTEXT: read-out: Pf ProRS IC50
pIC50: −log10 of the molar value.

The examples below pair each entry with its known result.
SMILES STRUCTURE: Cn1nc(C(F)(F)F)c(-c2cccc(C(F)(F)F)c2)c1NC(=O)Nc1ccc(F)cc1
pIC50: < 4.30
//
SMILES STRUCTURE: Cn1nc(C(F)(F)F)c(-c2ccc(F)cc2)c1NC(=O)Nc1ccnc(N2CCOCC2)c1
pIC50: < 4.30
//
SMILES STRUCTURE: Cn1nc(CCC(N)=O)c(-c2ccc(F)cc2)c1NC(=O)Nc1ccc(F)cc1
pIC50: 5.10
//
SMILES STRUCTURE: NC(=O)Cn1nc(C(F)(F)F)c(-c2ccc(F)cc2)c1NC(=O)Nc1ccc(F)cc1
pIC50: < 4.30
//
SMILES STRUCTURE: Cn1nc(C(F)(F)F)c(-c2ccccc2CO)c1NC(=O)Nc1ccc(F)cc1
pIC50: 4.70
//
SMILES STRUCTURE: O=C(Nc1ccc(F)cc1)Nc1[nH]nc(C(F)(F)F)c1-c1ccc(F)cc1
pIC50: < 4.30
//
SMILES STRUCTURE: Cn1nc(C(F)(F)F)c(Br)c1NC(=O)Nc1ccc(F)cc1
pIC50: < 4.30

Proceed to the following item.
Fill in: PfProRS (Plasmodium falciparum) pIC50 for Cn1nc(C(F)(F)F)c(-c2ccccc2CCO)c1NC(=O)Nc1ccc(F)cc1 = < 4.30

---

EXPERIMENTAL SYSTEM: PfProRS (Plasmodium falciparum)
Construct: B2, AA7–746 (minus 6 amino acids, or 99% of the ORF); made in house; host or cells: E. coli BL21(DE3)R3 Rosetta Oxford
EXPERIMENT: ATP consumption assay with proline or ATP varied (competition)
Assay type: biochemical
TEST CONTEXT: TCMDC-124506 IC50 as a function of ATP, ATP=12
MEASURED PROPERTY: pIC50
Answers are plain numbers, as −log10 of the molar value.

Given item Cn1nc(C(F)(F)F)c(-c2ccc(F)cc2)c1NC(=O)Nc1ccc(F)cc1 , the value recorded as its pIC50 is 3.84

---

Hi there, I'd appreciate the recorded inhibition at 0.03 µM for every entry that follows.
EXPERIMENTAL SYSTEM: PfProRS (Plasmodium falciparum, UniProt Q8I5R7)
Construct: B2, AA7–746 (minus 6 amino acids, or 99% of the ORF); made in house; host or cells: E. coli BL21(DE3)R3 Rosetta Oxford
EXPERIMENT: luciferase ATP depletion assay, HTS format
Format: biochemical
TEST CONTEXT: read-out: Percentage inhibition Pf ProRS
One number for each entry, in %.

The examples below pair each entry with its known result.
MOLECULE: O=C(CCn1cncn1)N1CCCC(c2[nH]c3ccccc3c2-c2ccncc2)C1 (stereo not shown) [TCMDC-125377]
UNITS TEXT: %
inhibition at 0.03 µM: 1.17
//
MOLECULE: CCCCC(N)COc1cccc2c(-c3ccncc3)c(-c3cccc(NC(=O)Nc4ccccc4)c3)nn12 (stereo not shown) [TCMDC-135537]
UNITS TEXT: %
inhibition at 0.03 µM: -1.72
//
MOLECULE: N[C@@H](COc1cccc2c(-c3ccncc3)c(-c3cccc(NC(=O)Nc4ccccc4)c3)nn12)c1ccccc1 [TCMDC-135512]
UNITS TEXT: %
inhibition at 0.03 µM: 1.13

Given item CCn1nc(-c2ccc(C(=O)OC)cc2)nc2c(=O)n(C)c(=O)nc1-2 [MMV306025] , the value recorded as its inhibition at 0.03 µM is -0.55

---

EXPERIMENTAL SYSTEM: PfProRS (Plasmodium falciparum)
Construct: B2, AA7–746 (minus 6 amino acids, or 99% of the ORF); made in house; host or cells: E. coli BL21(DE3)R3 Rosetta Oxford
EXPERIMENT: ATP consumption assay with proline or ATP varied (competition)
Type: biochemical
TEST CONTEXT: IC50 of TCMDC-124506 as a function of proline, Pro=60
MEASURED PROPERTY: IC50 (µM)
One number for each entry, in µM.

Fill in: PfProRS (Plasmodium falciparum) IC50 for Cn1nc(C(F)(F)F)c(-c2ccc(F)cc2)c1NC(=O)Nc1ccc(F)cc1 [TCMDC-124506] = 110

---

Hi there, I'd appreciate the recorded pEC50 for every entry that follows.
Test system: Plasmodium falciparum strain 3D7
EXPERIMENT: Plasmodium falciparum growth inhibition, SYBR green fluorescence
Assay type: cell-based
TEST CONTEXT: 3D7, growth inhibition, read-out: Pf (3D7) EC50
pEC50: −log10 of the molar value.

MOLECULE: O=C(Nc1ccc(F)cc1)Nc1[nH]nc(C(F)(F)F)c1-c1ccc(F)cc1 [Compound 7]
RECORDED VALUE: < 4.30
//
MOLECULE: NC(=O)Cn1nc(C(F)(F)F)c(-c2ccc(F)cc2)c1NC(=O)Nc1ccc(F)cc1 [Compound 9]
RECORDED VALUE: < 4.30
//
MOLECULE: CN(C)CCc1nn(C)c(NC(=O)Nc2ccc(F)cc2)c1-c1ccc(F)cc1 [Compound 25]
RECORDED VALUE: < 4.30
//
MOLECULE: COc1ccc(NC(=O)Nc2c(-c3ccc(F)cc3)c(C(F)(F)F)nn2C)cc1 [Compound 5]
RECORDED VALUE: < 4.30
//
MOLECULE: Cn1nc(C(F)(F)F)c(-c2ccc(F)cc2)c1NC(=O)Nc1ccc(F)cc1F [Compound 3]
RECORDED VALUE: 6.15

Proceed to the following item.
Given item Cn1nc(C#N)c(-c2ccc(F)cc2)c1NC(=O)Nc1ccc(F)cc1 [Compound 22] , the value recorded as its pEC50 is 6.22
